These measurements were taken from patent US8178506B2.

Reported % cells in cell cycle phase: G1 values are given for each entry in this list.
# Test system: A549 cells
# ASSAY_COMMENT: Cell cycle assay in A549 cells
# Type: cell-based, human
# SETTINGS: A549 cells, 100 nM, 24 hours; relative to the untreated control cells in that phase
Numbers only; they are read as %.

Use the examples below as a reference point.
340350 (antisense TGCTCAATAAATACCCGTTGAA; all 2'-MOE, all phosphorothioate, methylation of C not given here) [compound 340350]: 125
338836 (antisense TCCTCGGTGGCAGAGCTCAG; all 2'-MOE, all phosphorothioate, methylation of C not given here) [compound 338836]: 117
338769 (antisense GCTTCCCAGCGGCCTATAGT; all 2'-MOE, all phosphorothioate, methylation of C not given here) [compound 338769]: 124

Then there is this substance:
The recorded % cells in cell cycle phase: G1 for 338637 (antisense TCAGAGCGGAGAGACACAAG; all 2'-MOE, all phosphorothioate, methylation of C not given here) [compound 338637] is 126
